- System: Amaranthus rudis (AMATA), tall water hemp
- assay_summary: Postemergence herbicide evaluation, growth of Amaranthus rudis (AMATA)
- Type: in vivo
- applied_conditions: Amaranthus tuberculatus, post-emergence, 504 h, 560 g ae/ha, 21 DAA; read-out: Ave. AMATA, percent reduction in plant size relative to the untreated control
pest or weed control at 560 g/ha values, listed per item
Field format: number, assumed %, no unit text.

C/C(=N\OC(=O)COc1ccc(Cl)cc1Cl)c1cccnc1 [Compound A26] = 92.5

input: Fill in the blank: the reported pest or weed control at 560 g/ha of O=C(COc1ccc(Cl)cc1Cl)O/N=C/c1cccnc1 [Compound A29] is ____.
output: 100

input: Proceed to O=C(COc1ccc(Cl)cc1Cl)Oc1cncnc1 [Compound E14]
output: 100

input: Proceed to O=C(COc1ccc(Cl)cc1Cl)Oc1cccnn1 [Compound E2]
output: 84

input: Proceed to N/C(=N\OC(=O)COc1ccc(Cl)cc1Cl)c1cccnc1 [Compound A4]
output: 75
